test: Biodistribution at 24 h p.i. in AR42J tumor-bearing CB17-SCID mice; format: in vivo; details: mouse, bone, 100 pmol, depending on 177Lu-batch, read-out: activity levels in the bone, range observed (correlating with free lutetium-177)
measured_endpoint: tissue uptake at 24 h

compound: CCCC[C@@H](C(=O)N[C@@H](CC(=O)O)C(=O)N[C@@H](Cc1cccc2ccccc12)C(N)=O)N(C)C(=O)[C@H](Cc1c[nH]c2ccccc12)NC(=O)CCOCCOCCOCCOCCNC(=O)CC[C@@H](NC(=O)CCOCCOCCOCCOCCOCCOCCOCCOCCNC(=O)CC[C@@H](NC(=O)[C@@H](CNC(=O)c1ccc([Si](F)(C(C)(C)C)C(C)(C)C)cc1)NC(=O)CN1CCN(CC(=O)O)CCN(CC(=O)O)CCN(CC(=O)O)CC1)C(=O)O)C(=O)O [[^nat/177Lu]Lu-DOTA-rhCCK-70, metal not drawn]
measured_endpoint: tissue uptake at 24 h
test_value: 0.5 to 4.3 %ID/g

====

Test: Biodistribution at 24 h p.i. in AR42J tumor-bearing CB17-SCID mice
Assay type: in vivo
Conditions: both sexes, CB17-SCID, mouse, tumor/blood, 100 pmol, total radioactivity, 100 pmol, n=4, Table S3, read-out: Tumor-to-background ratio, Blood
Experimental: Animal experiments were carried out according to the general animal welfare regulations in Germany (German animal protection act, in the edition of the announcement, dated 18 May 2006, as amended by Article 280 of 19 June 2020, approval no. ROB-55.2–1-2532.Vet_02-18–109 by the General Administration of Upper Bavaria) and the institutional guidelines for the care and use of animals. […] Table S2. […] Data are expressed as %ID/g, mean ± SD. Table S3. […] Data are expressed as %ID/g, mean ± SD.
Recorded tissue to tissue ratio at 24 h by entry

compound: CCCC[C@@H](C(=O)N[C@@H](CC(=O)O)C(=O)N[C@@H](Cc1cccc2ccccc12)C(N)=O)N(C)C(=O)[C@H](Cc1c[nH]c2ccccc12)NC(=O)CCOCCOCCOCCOCCNC(=O)CC[C@@H](NC(=O)CCOCCOCCOCCOCCOCCNC(=O)CC[C@@H](NC(=O)[C@@H](CNC(=O)C[N+](C)(C)Cc1ccc([Si](F)(C(C)(C)C)C(C)(C)C)cc1)NC(=O)CN1CCN(CC(=O)O)CCN(CC(=O)O)CCN(CC(=O)O)CC1)C(=O)O)C(=O)O [[^nat/177Lu]Lu-DOTA-rhCCK-91, metal not drawn]
tissue to tissue ratio at 24 h: 185

compound: CCCC[C@@H](C(=O)N[C@@H](CC(=O)O)C(=O)N[C@@H](Cc1cccc2ccccc12)C(N)=O)N(C)C(=O)[C@H](Cc1c[nH]c2ccccc12)NC(=O)CCOCCOCCOCCOCCNC(=O)CC[C@@H](NC(=O)CCOCCOCCOCCOCCOCCOCCOCCOCCNC(=O)CC[C@@H](NC(=O)[C@@H](CNC(=O)c1ccc([Si](F)(C(C)(C)C)C(C)(C)C)cc1)NC(=O)CN1CCN(CC(=O)O)CCN(CC(=O)O)CCN(CC(=O)O)CC1)C(=O)O)C(=O)O [[^nat/177Lu]Lu-DOTA-rhCCK-70, metal not drawn]
tissue to tissue ratio at 24 h: 143
